Target: Motilin Receptor (Oryctolagus cuniculus, UniProt G1T803)
Construct: The muscle tissue was homogenized in 10 volumes of 50 mM Tris-Cl; from tissue; host or cells: rabbit colon smooth muscle, crude membrane homogenate
Sequence (G1T803 1-400): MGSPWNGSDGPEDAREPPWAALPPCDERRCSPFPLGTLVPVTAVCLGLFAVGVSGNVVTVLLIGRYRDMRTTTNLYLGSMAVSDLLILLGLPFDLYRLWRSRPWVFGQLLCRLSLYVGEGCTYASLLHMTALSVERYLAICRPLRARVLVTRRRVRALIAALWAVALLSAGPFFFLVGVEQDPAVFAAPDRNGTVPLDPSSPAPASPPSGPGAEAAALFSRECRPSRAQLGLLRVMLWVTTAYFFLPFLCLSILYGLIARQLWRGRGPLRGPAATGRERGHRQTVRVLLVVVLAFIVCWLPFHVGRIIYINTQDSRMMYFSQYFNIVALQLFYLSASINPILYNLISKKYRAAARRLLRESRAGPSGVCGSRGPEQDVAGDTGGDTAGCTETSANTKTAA
Assay: Motilin receptor binding, rabbit colon membranes, 125I porcine motilin
Conditions: rabbit colon membranes; read-out: Rabbit Colon IC50
pIC50: −log10 of the molar value.
The entries below are paired with their reported pIC50.
Measured Attribute: pIC50

>>> numeric_readout("O=C(CCC(=O)N(Cc1ccc(F)cc1)c1cccc(OCCN2CCOCC2)c1)N(CCc1ccccc1)Cc1ccccc1")
6.64
>>> numeric_readout("O=C(CCCC(=O)N1CCc2ccccc2C1c1ccccc1)N(Cc1ccc(F)cc1)c1cccc(OCCN2CCOCC2)c1 (centres unmarked)")
7.09
>>> numeric_readout("CC(C)(C)C(=O)N(Cc1ccccc1)C1CCCC(CN(C(=O)c2ccc(F)cc2)c2cccc(OCCN3CCOCC3)c2)C1 (centres unmarked)")
6.11
>>> numeric_readout("O=C(Nc1ccccc1)N(CC1CCCC(N(Cc2ccccc2)C(=O)C(Cl)(Cl)Cl)C1)c1cccc(OCCN2CCOCC2)c1 (centres unmarked)")
6.02
>>> numeric_readout("O=C(CCCC(=O)N(Cc1ccc(F)cc1)c1cccc(OCCN2CCCC2)c1)N(CCc1ccc(Cl)cc1)Cc1cccc(Cl)c1")
6.48
>>> numeric_readout("CC(C)(C)C(=O)N(Cc1cccc(Cl)c1)C1CCCC(CN(C(=O)c2ccc(F)cc2)c2cccc(OCCN3CCOCC3)c2)C1 (centres unmarked)")
6.41
>>> numeric_readout("CC(C)(C)C(=O)N(Cc1cccc(Cl)c1)C1CCCC(CN(C(=O)c2ccc(F)cc2)c2cccc(OCCN3CCCCC3)c2)C1 (centres unmarked)")
6.77
>>> numeric_readout("O=C(c1ccc(F)cc1)N(CC1CCCC(N(Cc2ccccc2)C(=O)C(F)(F)F)C1)c1cccc(OCCN2CCOCC2)c1 (centres unmarked)")
6.02
>>> numeric_readout("O=C(c1ccc(F)cc1)N(CC1CCCC(N(Cc2cccc(C(F)(F)F)c2)C(=O)C(Cl)(Cl)Cl)C1)c1cccc(OCCN2CCOCC2)c1 (centres unmarked)")
5.77
>>> numeric_readout("O=C(CCC(=O)N(Cc1ccccc1F)c1cccc(OCCN2CCOCC2)c1)N(CCc1ccccc1)Cc1ccccc1")
6.26
>>> numeric_readout("COc1cccc(CN(Cc2cccc(Cl)c2)C(=O)CCCC(=O)N(Cc2ccc(F)cc2)c2cccc(OCCN3CCCC3)c2)c1")
6.97
>>> numeric_readout("CN(C)CCOc1cccc(N(Cc2ccc(F)cc2)C(=O)CCCC(=O)N(CCc2ccccc2)Cc2ccccc2)c1")
7.03
>>> numeric_readout("O=C(CCCC(=O)N(Cc1ccc(F)cc1)c1cccc(OCCN2CCCC2)c1)N(CCc1cccs1)Cc1cccc(Cl)c1")
7.54
>>> numeric_readout("O=C(CCCC(=O)N(Cc1cccc(F)c1)c1cccc(OCCN2CCOCC2)c1)N(CCc1ccccc1)Cc1ccccc1")
7.34
>>> numeric_readout("O=C(c1ccc(F)cc1)N(CC1CCCC(N(Cc2cccc([N+](=O)[O-])c2)C(=O)C(Cl)(Cl)Cl)C1)c1cccc(OCCN2CCCC2)c1 (centres unmarked)")
7.85
>>> numeric_readout("O=C(c1ccc(F)cc1)N(CC1CCCC(N(Cc2cccc([N+](=O)[O-])c2)C(=O)C(Cl)(Cl)Cl)C1)c1cccc(OCCN2CCOCC2)c1 (centres unmarked)")
7.05
>>> numeric_readout("O=C(c1ccc(F)cc1)N(CC1CCCC(N(Cc2cccc(Cl)c2)C(=O)Cc2cccs2)C1)c1cccc(OCCN2CCOCC2)c1 (centres unmarked)")
6.12
>>> numeric_readout("O=C(CCCC(=O)N(Cc1ccc(F)cc1)c1cccc(OCCCN2CCCCC2)c1)N(CCc1ccccc1)Cc1ccccc1")
6.61
>>> numeric_readout("O=C(CCCC(=O)N(Cc1ccc(F)cc1)c1cccc(OCCN2CCOCC2)c1)N(CCc1ccccc1)Cc1ccccc1")
7.24
>>> numeric_readout("O=C(CCCC(=O)N(Cc1ccc(F)cc1)c1cccc(OCCN2CCCC2)c1)N(CCc1ccccc1)Cc1cccc([N+](=O)[O-])c1")
8.05
>>> numeric_readout("COc1cccc(C(=O)N(Cc2cccc(Cl)c2)C2CCCC(CN(C(=O)c3ccc(F)cc3)c3cccc(OCCN4CCOCC4)c3)C2)c1 (centres unmarked)")
5.98
>>> numeric_readout("O=C(c1ccc(F)cc1)N(CC1CCCC(N(Cc2ccccc2)C(=O)c2ccco2)C1)c1cccc(OCCN2CCOCC2)c1 (centres unmarked)")
6.04
>>> numeric_readout("CC(C)(C)C(=O)N(Cc1ccccc1)[C@@H]1CCC[C@H](CN(C(=O)Nc2ccccc2)c2cccc(OCCN3CCCC3)c2)C1")
7.68
>>> numeric_readout("O=C(CCCC(=O)N(Cc1ccc(F)cc1)c1cccc(OCCN2CCCC2)c1)N(CCN1CCCC1)Cc1cccc(Cl)c1")
6.62
>>> numeric_readout("O=C(Nc1ccccc1)N(CC1CCCC(N(Cc2cc(Cl)cc(Cl)c2)C(=O)C(Cl)(Cl)Cl)C1)c1cccc(OCCN2CCOCC2)c1 (centres unmarked)")
6.18
>>> numeric_readout("O=C(Nc1ccccc1)N(CC1CCCC(N(Cc2ccccc2)C(=O)c2ccco2)C1)c1cccc(OCCN2CCOCC2)c1 (centres unmarked)")
6.18
